Listed below: growth inhibition (GI) values for each entry.
# System: Mycobacterium tuberculosis
# assay-protocol: Antimicrobial activity against ofloxacin resistant Mycobacterium tuberculosis SRI 4000 assessed as growth inhibition at MIC after 7 days
# Type: functional
measurement-name: growth inhibition (GI) (%)

INSERT INTO results (molecular_string, units, measurement) VALUES
  ('Cc1c(C(=O)/C=C/c2ccccc2)[n+]([O-])c2cc(Cl)ccc2[n+]1[O-]', '%', 100),
  ('O=C(c1ccco1)c1c(C(F)(F)F)[n+]([O-])c2cc(Cl)c(N3CCOCC3)cc2[n+]1[O-]', '%', 76),
  ('CO[C@H]1/C=C/O[C@@]2(C)Oc3c(C)c(O)c4c(O)c(c(/C=N/N5CCN(C)CC5)c(O)c4c3C2=O)NC(=O)/C(C)=C\C=C\[C@H](C)[C@H](O)[C@@H](C)[C@@H](O)[C@@H](C)[C@H](OC(C)=O)[C@@H]1C', '%', 53),
  ('COC(=O)c1c(C(F)(F)F)[n+]([O-])c2ccc(N3CCN(c4ccc(F)cc4)CC3)cc2[n+]1[O-]', '%', 81),
  ('CC(=O)c1c(C(F)(F)F)[n+]([O-])c2cc(F)c(N3CCCCC3)cc2[n+]1[O-]', '%', 84),
  ('CC(=O)c1c(C(F)(F)F)nc2cc(F)c(N3CCSCC3)cc2[n+]1[O-]', '%', 62);

---

Measured growth inhibition (GI) by item
# Tested on: Mycobacterium tuberculosis
# assay-protocol: Antimicrobial activity against rifampicin resistant Mycobacterium tuberculosis SRI 1367 assessed as growth inhibition at MIC after 7 days
# Assay type: functional
measurement-name: growth inhibition (GI)

INSERT INTO measurements (compound, measurement_name, measurement) VALUES
  ('COC(=O)c1c(C(F)(F)F)[n+]([O-])c2ccc(N3CCN(c4ccc(F)cc4)CC3)cc2[n+]1[O-]', 'growth inhibition (GI)', '73%'),
  ('CC(=O)c1c(C(F)(F)F)[n+]([O-])c2cc(F)c(N3CCCCC3)cc2[n+]1[O-]', 'growth inhibition (GI)', '68%'),
  ('CC(=O)c1c(C(F)(F)F)nc2cc(F)c(N3CCSCC3)cc2[n+]1[O-]', 'growth inhibition (GI)', '75%'),
  ('O=C(c1ccco1)c1c(C(F)(F)F)[n+]([O-])c2cc(Cl)c(N3CCOCC3)cc2[n+]1[O-]', 'growth inhibition (GI)', '66%'),
  ('Cc1c(C(=O)/C=C/c2ccccc2)[n+]([O-])c2cc(Cl)ccc2[n+]1[O-]', 'growth inhibition (GI)', '51%'),
  ('NNC(=O)c1ccncc1 [ISONIAZID]', 'growth inhibition (GI)', '55%');
